This section presents compounds with their documented IC50 values.
# System: A549
# test-protocol: Cytotoxicity against human A549 cells assessed as cell viability after 96 hrs by SRB assay
# Assay type: functional, cell-based
# setup-conditions: A549, 96 h
API: value field is a number in µM; no unit string.

Some compounds with recorded IC50:
- compound: "CC(=O)[C@@H]1CC[C@]2(C(=O)O)CC[C@]3(C)[C@H](CC[C@@H]4[C@@]5(C)CCC(=O)C(C)(C)[C@@H]5CC[C@]43C)[C@@H]12"
  IC50 / µM: 59.1
- compound: "C[C@H](C=O)[C@@H]1CC[C@]2(C(=O)O)CC[C@]3(C)[C@H](CC[C@@H]4[C@@]5(C)CC/C(=N\\Nc6ccc([N+](=O)[O-])cc6[N+](=O)[O-])C(C)(C)[C@@H]5CC[C@]43C)[C@@H]12"
  IC50 / µM: 2

Shifting focus to the compound that follows.
Measured on A549, C[C@@H](C=O)[C@@H]1CC[C@]2(C(=O)O)CC[C@]3(C)[C@H](CC[C@@H]4[C@@]5(C)CCC(O)C(C)(C)[C@@H]5CC[C@]43C)[C@@H]12 (stereo partly drawn) has a documented IC50 of 46.9

###

# System: A549
# test-protocol: Induction of apoptosis in human A549 cells assessed as chromatin condensation at IC80 after 24 hrs by acridine orange/ethidium bromide staining-based fluorescence microscopic analysis
# Format: functional, cell-based
Active and inactive are the calls of the source. The calls are words filed in the database; no cut-off is given here.
assay-endpoint: Activity

Some molecules with recorded Activity:
- smiles-repr: "CC(=O)[C@@H]1CC[C@]2(C(=O)O)CC[C@]3(C)[C@H](CC[C@@H]4[C@@]5(C)CC/C(=N\\Nc6ccc([N+](=O)[O-])cc6[N+](=O)[O-])C(C)(C)[C@@H]5CC[C@]43C)[C@@H]12"
  Activity: "Active"
- smiles-repr: "C/C(=N\\Nc1ccc([N+](=O)[O-])cc1[N+](=O)[O-])[C@@H]1CC[C@]2(C(=O)O)CC[C@]3(C)[C@H](CC[C@@H]4[C@@]5(C)CC[C@H](O)C(C)(C)[C@@H]5CC[C@]43C)[C@@H]12"
  Activity: "Active"
- smiles-repr: "C=C(C)[C@@H]1CC[C@]2(C(=O)O)CC[C@]3(C)[C@H](CC[C@@H]4[C@@]5(C)CC[C@H](O)C(C)(C)[C@@H]5CC[C@]43C)[C@@H]12"
  Activity: "Active"
- smiles-repr: "C[C@@H](C=O)[C@@H]1CC[C@]2(C(=O)O)CC[C@]3(C)[C@H](CC[C@@H]4[C@@]5(C)CC/C(=N\\Nc6ccc([N+](=O)[O-])cc6[N+](=O)[O-])C(C)(C)[C@@H]5CC[C@]43C)[C@@H]12"
  Activity: "Active"

For reference, reported Activity for `C=C(C)[C@@H]1CC[C@]2(C(=O)O)CC[C@]3(C)[C@H](CC[C@@H]4[C@@]5(C)CC/C(=N\Nc6ccc([N+](=O)[O-])cc6[N+](=O)[O-])C(C)(C)[C@@H]5CC[C@]43C)[C@@H]12` stands at Active

###

This section presents compounds with their documented pIC50 values.
# Tested on: A2780
# test-protocol: Cytotoxicity against human A2780 cells assessed as cell viability after 96 hrs by SRB assay
# Format: functional, cell-based
# setup-conditions: A2780, 96 h
Scale explanation: pIC50 corresponds to minus log10 of a concentration expressed in moles per litre.

Some compounds with recorded pIC50:
- compound: "C[C@@H](C=O)[C@@H]1CC[C@]2(C(=O)O)CC[C@]3(C)[C@H](CC[C@@H]4[C@@]5(C)CC/C(=N\\Nc6ccc([N+](=O)[O-])cc6[N+](=O)[O-])C(C)(C)[C@@H]5CC[C@]43C)[C@@H]12"
  assay-endpoint: "pIC50"
  meas-value: 5.75
- compound: "C/C(=N\\Nc1ccc([N+](=O)[O-])cc1[N+](=O)[O-])[C@@H]1CC[C@]2(C(=O)O)CC[C@]3(C)[C@H](CC[C@@H]4[C@@]5(C)CC/C(=N\\Nc6ccc([N+](=O)[O-])cc6[N+](=O)[O-])C(C)(C)[C@@H]5CC[C@]43C)[C@@H]12"
  assay-endpoint: "pIC50"
  meas-value: 4.27
- compound: "C=C(C)[C@@H]1CC[C@]2(C(=O)O)CC[C@]3(C)[C@H](CC[C@@H]4[C@@]5(C)CC/C(=N\\Nc6ccc([N+](=O)[O-])cc6[N+](=O)[O-])C(C)(C)[C@@H]5CC[C@]43C)[C@@H]12"
  assay-endpoint: "pIC50"
  meas-value: 5.21
- compound: "C/C(=N/O)[C@@H]1CC[C@]2(C(=O)O)CC[C@]3(C)[C@H](CC[C@@H]4[C@@]5(C)CC[C@H](O)C(C)(C)[C@@H]5CC[C@]43C)[C@@H]12"
  assay-endpoint: "pIC50"
  meas-value: 4.26

For reference, reported pIC50 for `C[C@H](C=O)[C@@H]1CC[C@]2(C(=O)O)CC[C@]3(C)[C@H](CC[C@@H]4[C@@]5(C)CC/C(=N\Nc6ccc([N+](=O)[O-])cc6[N+](=O)[O-])C(C)(C)[C@@H]5CC[C@]43C)[C@@H]12` stands at 5.74

For reference, reported pIC50 for C[C@@H](C=O)[C@@H]1CC[C@]2(C(=O)O)CC[C@]3(C)[C@H](CC[C@@H]4[C@@]5(C)CCC(O)C(C)(C)[C@@H]5CC[C@]43C)[C@@H]12 (some centres undefined) stands at 4.30

For reference, reported pIC50 for C=C(C)[C@@H]1CC[C@]2(C(=O)OC)CC[C@]3(C)[C@H](CC[C@@H]4[C@@]5(C)CCC(=O)C(C)(C)[C@@H]5CC[C@]43C)[C@@H]12 [METHYL BETULONATE] stands at 4.44

For reference, reported pIC50 for `CC(=O)[C@@H]1CC[C@]2(C(=O)O)CC[C@]3(C)[C@H](CC[C@@H]4[C@@]5(C)CC[C@H](O)C(C)(C)[C@@H]5CC[C@]43C)[C@@H]12` stands at 4.17

###

This section presents molecules with their documented IC50 values.
# Tested on: A549
# test-protocol: Cytotoxicity against human A549 cells assessed as cell viability after 96 hrs by SRB assay
# Format: functional, cell-based
# setup-conditions: A549, 96 h
API: value field is a number in µM; no unit string.

- smiles-repr: "CC(=O)[C@@H]1CC[C@]2(C(=O)O)CC[C@]3(C)[C@H](CC[C@@H]4[C@@]5(C)CC/C(=N\\Nc6ccc([N+](=O)[O-])cc6[N+](=O)[O-])C(C)(C)[C@@H]5CC[C@]43C)[C@@H]12"
  meas-value: 12.1

Measured on A549, `C[C@@H](C=O)[C@@H]1CC[C@]2(C(=O)O)CC[C@]3(C)[C@H](CC[C@@H]4[C@@]5(C)CC/C(=N\Nc6ccc([N+](=O)[O-])cc6[N+](=O)[O-])C(C)(C)[C@@H]5CC[C@]43C)[C@@H]12` has a documented IC50 of 1.79

###

# Test system: A549
# test-protocol: Cytotoxicity against human A549 cells assessed as cell viability after 96 hrs by SRB assay
# Type: functional, cell-based
# setup-conditions: A549, 96 h
assay-endpoint: pIC50
Scale explanation: pIC50 corresponds to minus log10 of a concentration expressed in moles per litre.

For reference, reported pIC50 for C=C(C)[C@@H]1CC[C@]2(C(=O)OC)CC[C@]3(C)[C@H](CC[C@@H]4[C@@]5(C)CC[C@H](O)C(C)(C)[C@@H]5CC[C@]43C)[C@@H]12 [METHYL BETULINATE] stands at 4.77

For reference, reported pIC50 for C=C(C)[C@@H]1CC[C@]2(C(=O)O)CC[C@]3(C)[C@H](CC[C@@H]4[C@@]5(C)CC[C@H](O)C(C)(C)[C@@H]5CC[C@]43C)[C@@H]12 [BETULINIC ACID] stands at 4.88

For reference, reported pIC50 for `C/C(=N/O)[C@@H]1CC[C@]2(C(=O)O)CC[C@]3(C)[C@H](CC[C@@H]4[C@@]5(C)CC[C@H](O)C(C)(C)[C@@H]5CC[C@]43C)[C@@H]12` stands at 4.27

For reference, reported pIC50 for C=C(C)[C@@H]1CC[C@]2(C(=O)O)CC[C@]3(C)[C@H](CC[C@@H]4[C@@]5(C)CCC(=O)C(C)(C)[C@@H]5CC[C@]43C)[C@@H]12 [BETUNOLIC ACID] stands at 4.98

For reference, reported pIC50 for `C=C(C)[C@@H]1CC[C@]2(C(=O)O)CC[C@]3(C)[C@H](CC[C@@H]4[C@@]5(C)CC/C(=N\Nc6ccc([N+](=O)[O-])cc6[N+](=O)[O-])C(C)(C)[C@@H]5CC[C@]43C)[C@@H]12` stands at 4.67

For reference, reported pIC50 for `C/C(=N\Nc1ccc([N+](=O)[O-])cc1[N+](=O)[O-])[C@@H]1CC[C@]2(C(=O)O)CC[C@]3(C)[C@H](CC[C@@H]4[C@@]5(C)CC[C@H](O)C(C)(C)[C@@H]5CC[C@]43C)[C@@H]12` stands at 5.12

For reference, reported pIC50 for CC(=O)[C@@H]1CC[C@]2(C(=O)O)CC[C@]3(C)[C@H](CC[C@@H]4[C@@]5(C)CC[C@H](O)C(C)(C)[C@@H]5CC[C@]43C)[C@@H]12 [PLATANIC ACID] stands at 4.12
